Target: SOCS2 (Homo sapiens, UniProt O14508)
Construct: endogenous SOCS2 from K562 lysates; endogenous in cells; host or cells: K562
Sequence (O14508 whole entry): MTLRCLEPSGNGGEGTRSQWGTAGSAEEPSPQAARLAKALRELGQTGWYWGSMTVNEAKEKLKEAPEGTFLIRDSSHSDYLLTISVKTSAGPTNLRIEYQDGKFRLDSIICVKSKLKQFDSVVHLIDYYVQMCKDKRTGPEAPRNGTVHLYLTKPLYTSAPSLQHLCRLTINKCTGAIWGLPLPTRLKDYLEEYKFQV
Experiment summary: SOCS2 pulldown with biotinylated GHR_pY595 peptide from K562 cell lysates preincubated with compound
Type: biochemical
Condition: K562 cell lysates, mean ± SEM, technical replicates = 2; read-out: IC50 of reduction of SOCS2 pulled down with biotinylated GHR pY595
Assay metric: IC50
// return the numeric value with its unit appended

query: Find IC50 (SOCS2 (Homo sapiens, UniProt O14508)) for the entry O=C(CCl)Nc1cccc(CNC(=O)[C@H](Cc2ccc(OP(=O)(O)O)cc2)NC(=O)Cc2ccc(F)cc2)c1 [MN551]
result: 5.9 µM
